These measurements were taken from patent US20260242478A1.

Biological target: T1, PSMA Fab (006 PSMA Fab) (biotinylated (site not stated))
T1 construct: also called Anti-PSMA Fab; anti-PSMA Fab
Test: clonal phage ELISA on captured PSMA Fab, wells pre-incubated with PSMA antigen as competitor
Where no end group is shown, it is not given here.
VALUE KIND: phage binding ELISA signal (Anti-PSMA Fab with PSMA)

Kindly give each listed record's phage binding ELISA signal (Anti-PSMA Fab with PSMA).
1. GELKCIPPWMCEGF (cysteine pairing not given here; also: fused to pIII of bacteriophage, not shown: fused to pIII of the bacteriophage) [Phage-3345]
2. MEPVCKPKWMCQGF (cysteine pairing not given here; also: fused to pIII of bacteriophage, not shown: fused to pIII of the bacteriophage) [Phage-3342]
3. LEVLCKPTWMCVGF (cysteine pairing not given here; also: fused to pIII of bacteriophage, not shown: fused to pIII of the bacteriophage) [Phage-3337]
4. QSPMCKPDWMCLGF (cysteine pairing not given here; also: fused to pIII of bacteriophage, not shown: fused to pIII of the bacteriophage) [Phage-3347]
5. IVDICKPSWMCEGF (cysteine pairing not given here; also: fused to pIII of bacteriophage, not shown: fused to pIII of the bacteriophage) [Phage-3336]

1. 0.0808
2. 0.07
3. 0.078
4. 0.0728
5. 0.0649

# query: phage binding ELISA signal (Anti-PSMA Fab with PSMA) of entry MHFHCKPAWMCQGL (cysteine pairing not given here; also: fused to pIII of bacteriophage, not shown: fused to pIII of the bacteriophage) [Phage-3340]
0.0998
